Assay: Equilibrium loading data for metal salts, batch absorber experiments
Format: physicochemical
Conditions: equilibrium, 50 °C, atmospheric pressure, aqueous absorption solution
Experimental: The following experiments were conducted in a batch absorber wherein a sulfur dioxide-containing gas was fed via a sparger below the liquid level in a vessel containing an aqueous absorption solution comprising various polyprotic carboxylic acid salts and the composition of the exhaust gas was monitored. The sulfur dioxide-containing inlet gas 101 to be treated comprised nitrogen saturated with water vapor and a controlled concentration of sulfur dioxide. […]

compound	unitsText	Loading Capacity (fraction)
O=C([O-])CC(O)(CC(=O)[O-])C(=O)[O-].[K+].[K+].[K+] [K Cit, potassium citrate]	fraction	0.2754
O=C([O-])CCC(=O)[O-].[Na+].[Na+] [Na Suc, sodium succinate]	fraction	0.1045
O=C([O-])CC(O)C(=O)[O-].[Na+].[Na+] (stereo not shown) [Na Mal, sodium malate]	fraction	0.1694
O=C([O-])c1ccccc1C(=O)[O-].[Na+].[Na+] [Na Pha, sodium phthalate]	fraction	0.6530

====

Reported SO2, ppm values are given for each entry in this list.
Test: Equilibrium loading data for metal salts, batch absorber experiments
Format: physicochemical
Conditions: equilibrium SO2 concentration, 50 °C, atmospheric pressure
assayMetric: SO2, ppm (ppm)

compound	assayMetric	reading
O=C([O-])c1ccccc1C(=O)[O-].[Na+].[Na+] [Na Pha, sodium phthalate]	SO2, ppm	1115.92
O=C([O-])CCC(=O)[O-].[Na+].[Na+] [Na Suc, sodium succinate]	SO2, ppm	137.54
O=C([O-])CC(O)(CC(=O)[O-])C(=O)[O-].[K+].[K+].[K+] [K Cit, potassium citrate]	SO2, ppm	105.94
O=C([O-])CC(O)C(=O)[O-].[Na+].[Na+] (stereo not shown) [Na Mal, sodium malate]	SO2, ppm	406.6

====

Reported SO2, ppm values are given for each entry in this list.
Assay: Equilibrium loading data for metal salts, batch absorber experiments
Assay type: physicochemical
Settings: equilibrium SO2 concentration, 100 °C, atmospheric pressure
assayMetric: SO2, ppm (ppm)

molecule	assayMetric	reading
O=C([O-])CC(O)C(=O)[O-].[Na+].[Na+] (stereo not shown) [Na Mal, sodium malate]	SO2, ppm	2169.06
O=C([O-])CCC(=O)[O-].[Na+].[Na+] [Na Suc, sodium succinate]	SO2, ppm	1387.3
O=C([O-])CC(O)(CC(=O)[O-])C(=O)[O-].[K+].[K+].[K+] [K Cit, potassium citrate]	SO2, ppm	1162.54
O=C([O-])c1ccccc1C(=O)[O-].[Na+].[Na+] [Na Pha, sodium phthalate]	SO2, ppm	11303.83

====

Test: Equilibrium loading data for metal salts, batch absorber experiments
Assay type: physicochemical
Conditions: equilibrium, 100 °C, atmospheric pressure, aqueous absorption solution

compound	Loading Capacity (fraction)
O=C([O-])CC(O)C(=O)[O-].[Na+].[Na+] (stereo not shown) [Na Mal, sodium malate]	0.1416
O=C([O-])CC(O)(CC(=O)[O-])C(=O)[O-].[K+].[K+].[K+] [K Cit, potassium citrate]	0.2668
O=C([O-])c1ccccc1C(=O)[O-].[Na+].[Na+] [Na Pha, sodium phthalate]	0.7250
O=C([O-])CCC(=O)[O-].[Na+].[Na+] [Na Suc, sodium succinate]	0.2053
